Give measured inhibition at 50 µM for each item. Keep answers brief.
Target: LSD2 (Homo sapiens, UniProt Q8NB78)
Sequence (Q8NB78 1-822): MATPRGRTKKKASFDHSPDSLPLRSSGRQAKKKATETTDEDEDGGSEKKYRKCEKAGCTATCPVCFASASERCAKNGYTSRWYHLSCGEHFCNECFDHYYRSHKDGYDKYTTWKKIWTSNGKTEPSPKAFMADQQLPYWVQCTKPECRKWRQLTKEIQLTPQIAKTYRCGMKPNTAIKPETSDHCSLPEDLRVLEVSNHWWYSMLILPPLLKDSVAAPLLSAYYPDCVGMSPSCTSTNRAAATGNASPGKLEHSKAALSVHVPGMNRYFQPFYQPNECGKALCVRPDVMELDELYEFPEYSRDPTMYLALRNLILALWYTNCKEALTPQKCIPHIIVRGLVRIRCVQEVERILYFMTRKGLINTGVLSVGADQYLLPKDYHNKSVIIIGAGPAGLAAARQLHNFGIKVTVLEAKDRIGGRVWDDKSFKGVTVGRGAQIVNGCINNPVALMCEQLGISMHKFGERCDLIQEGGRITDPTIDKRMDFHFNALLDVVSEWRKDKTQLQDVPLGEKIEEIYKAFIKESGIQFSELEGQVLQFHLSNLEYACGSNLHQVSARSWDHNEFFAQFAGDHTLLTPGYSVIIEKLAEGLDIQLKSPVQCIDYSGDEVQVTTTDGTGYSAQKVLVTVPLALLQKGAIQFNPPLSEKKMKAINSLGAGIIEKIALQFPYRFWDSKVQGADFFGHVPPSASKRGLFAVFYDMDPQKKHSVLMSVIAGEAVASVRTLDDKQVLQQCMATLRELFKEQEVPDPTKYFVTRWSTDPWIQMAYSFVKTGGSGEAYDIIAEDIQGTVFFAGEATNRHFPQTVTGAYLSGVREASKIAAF
Test: LSD2 A-screen (AlphaScreen) demethylase enzymatic assay
Assay type: biochemical
Details: 50 μM compound; approximate values; read-out: Potency LSD-2 % Inhibition at 50 μM
Description: Enzymatic activities of compounds of the present disclosure can be tested with recombinant human LSD using an in vitro enzymatic assay to determine the ability of the compounds of the present disclosure to inhibit LSD-1 and LSD2. Examples of the assay are provided below. […] Enzyme activity assays were performed in duplicates at each concentration. The A-screen intensity data were analyzed and compared. […]
Number only, in %; omit the unit.

// query inhibition at 50 µM lookup needed for CCn1cc(C(=O)O)c(=O)c2c(N)c(F)c(N[C@H]3C[C@H](c4ccccc4)C3)cc21 [Compound I-60] , thanks.
// result 4

// query Param item: CCn1cc(C(=O)O)c(=O)c2cc(F)c(NC3CCCCC3)cc21 [Compound I-1]
// result 6

// query Param item: CCn1cc(C(=O)O)c(=O)c2c(N)c(F)c(NC3Cc4ccccc4C3)cc21 [Compound I-11]
// result 13

// query Param item: CCC(CC)n1cc(C(=O)O)c(=O)c2c(C)c(F)c(NC3CCCCC3)cc21 [Compound I-3]
// result 0

// query Param item: CCn1cc(C(=O)O)c(=O)c2c(N)c(F)c(N[C@@H]3CC[C@H]3c3ccccc3)cc21 (relative stereo) [Compound I-13]
// result 18

// query Param item: CCn1cc(C(=O)O)c(=O)c2c(N)c(F)c(NCc3ccccc3)cc21 [Compound I-17]
// result 19

// query Param item: Nc1c(F)c(NCCN[C@@H]2C[C@H]2c2ccccc2)cc2c1c(=O)c(C(=O)O)cn2C1CC1 (relative stereo) [Compound I-89]
// result 5

// query Param item: CCn1cc(C(=O)O)c(=O)c2c(N)c(F)c(NC3CCCCC3)cc21 [Compound I-7]
// result 5

// query Param item: CCn1cc(C(=O)O)c(=O)c2c(N)cc(NCCc3ccccc3)c(F)c21 [Compound I-65]
// result 38

// query Param item: CCn1cc(C(=O)O)c(=O)c2c(N)cc(NCCc3ccccc3)cc21 [Compound I-56]
// result 28

// query Param item: CCn1cc(C#N)c(=O)c2c(N)c(F)c(N[C@@H]3C[C@H]3c3ccccc3)cc21 (relative stereo) [Compound I-38]
// result 0

// query Param item: CCn1cc(C(=O)O)c(=O)c2c(N)c(F)c(N[C@@H]3CC[C@@H]3c3ccccc3)cc21 (relative stereo) [Compound I-14]
// result 3

// query Param item: CCn1cc(C(N)=O)c(=O)c2c(N)c(F)c(NCCc3ccccc3)cc21 [Compound I-66]
// result 4

// query Param item: CCn1cc(C(=O)O)c(=O)c2c(N)c(F)c(N[C@H]3C[C@@H](c4ccccc4)C3)cc21 [Compound I-61]
// result 15

// query Param item: CCn1cc(C(=O)O)c(=O)c2c(N)c(F)c(N[C@@H]3C[C@@H]3c3ccccc3)cc21 (relative stereo) [Compound I-23]
// result 16

// query Param item: CCn1cc(C(=O)O)c(=O)c2c(N)c(F)c(NC3CCOCC3)cc21 [Compound I-8]
// result 1

Data provenance is patent US20230058189A1.
